Biological target: Adenosine receptor A2b (Homo sapiens)
Sequence (P29275 whole entry): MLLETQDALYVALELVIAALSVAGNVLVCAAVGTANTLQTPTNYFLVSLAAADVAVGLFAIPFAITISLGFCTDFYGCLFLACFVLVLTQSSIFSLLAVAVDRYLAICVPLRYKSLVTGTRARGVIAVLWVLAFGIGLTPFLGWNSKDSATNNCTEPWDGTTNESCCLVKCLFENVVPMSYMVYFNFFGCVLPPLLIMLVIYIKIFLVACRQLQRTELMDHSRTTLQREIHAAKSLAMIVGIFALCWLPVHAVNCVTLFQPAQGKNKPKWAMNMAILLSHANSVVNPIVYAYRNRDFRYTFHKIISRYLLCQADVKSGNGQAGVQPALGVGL
pKi: −log10 of the molar value.
Property name: pKi

Smiles str: CCCCn1c(=O)[nH]c2nc(-c3ccc(OCC(=O)Nc4ccc(C(=O)OC)cc4)cc3)[nH]c2c1=O
Experimental system: Adenosine receptor A2b (Homo sapiens)
pKi: 8.28
//
Smiles str: C#CCn1c(=O)[nH]c2nc(-c3ccc(Br)cc3)[nH]c2c1=O
Experimental system: Adenosine receptor A2b (Homo sapiens)
pKi: 8.17
//
Smiles str: CCCCn1c(=O)[nH]c2[nH]c(-c3ccc(Br)cc3)nc2c1=O
Experimental system: Adenosine receptor A2b (Homo sapiens)
pKi: 8.57
//
Smiles str: CCCn1c(=O)[nH]c2cc(-c3ccccc3)[nH]c2c1=O
Experimental system: Adenosine receptor A2b (Homo sapiens)
pKi: 7.38
//
Smiles str: CCCCn1c(=O)[nH]c2[nH]c(-c3ccc(OCC(=O)N4CCN(CC)CC4)cc3)nc2c1=O
Experimental system: Adenosine receptor A2b (Homo sapiens)
pKi: 8.26

A = CCCn1c(=O)[nH]c2nc(-c3ccc(OCC(=O)OC)cc3)[nH]c2c1=O
B = CCCCn1c(=O)[nH]c2[nH]c(-c3ccc(OCC(=O)O)cc3)nc2c1=O
Select one: A or B . Criterion: greater recorded pKi. Bench note: the answer is the label of the chosen record.
A
(A: 8.43, B: 7.97)

Just for reference, ChEMBL document CHEMBL1135905 is where these values come from.
